Below, each of the compounds is paired with its reported fold change (FC) value.
- Target of assay: UniProt:P04062
- Sequence (P04062 whole entry): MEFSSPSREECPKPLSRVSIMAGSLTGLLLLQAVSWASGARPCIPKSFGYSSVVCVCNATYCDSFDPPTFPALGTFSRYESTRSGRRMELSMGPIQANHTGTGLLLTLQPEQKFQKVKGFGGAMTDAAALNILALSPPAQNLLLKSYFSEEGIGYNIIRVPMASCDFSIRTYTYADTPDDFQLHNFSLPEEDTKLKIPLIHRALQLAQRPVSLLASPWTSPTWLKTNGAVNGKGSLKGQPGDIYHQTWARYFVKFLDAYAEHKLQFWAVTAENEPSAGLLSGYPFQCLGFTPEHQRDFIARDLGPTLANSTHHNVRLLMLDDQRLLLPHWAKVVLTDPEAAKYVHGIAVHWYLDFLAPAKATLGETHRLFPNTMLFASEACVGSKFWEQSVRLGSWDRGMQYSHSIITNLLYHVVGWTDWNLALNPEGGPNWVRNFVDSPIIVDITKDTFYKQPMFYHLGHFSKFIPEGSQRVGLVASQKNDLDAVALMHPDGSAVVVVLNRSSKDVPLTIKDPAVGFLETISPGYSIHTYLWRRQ
- Procedure details: Effect on wild type beta-glucocerebrosidase activity in human skin fibroblasts at 2 uM using 4-methylumbelliferyl beta-D glycopyranoside as substrate after 5 days by fluorometric method relative to control
Lab note: jot the number down without any unit.

These recorded examples may help you get a feel for the data.
>>> val("OCCCCCCCCCCCCCCCC/N=C1/SC[C@@H]2[C@@H](O)[C@H](O)CCN12")
0.89
>>> val("CCCCCCCCNC(=S)N1CC[C@@H](O)[C@H](O)[C@H]1CO")
0.97
>>> val("CCCCCCCCNC(=S)N1C[C@@H](O)[C@H](O)[C@H]1CO")
0.85
>>> val("CCCCCCCC/N=C1/SC[C@@H]2[C@@H](O)[C@H](O)CCN12")
0.92
>>> val("CCCCCCCC/N=C1/SC[C@H]2[C@H](O)[C@@H](O)CN12")
0.83
>>> val("OCCCCCCCCCCCCCCCC/N=C1/SC[C@H]2[C@H](O)[C@@H](O)CN12")
0.78
>>> val("OCCCCCCCCCCCCCCCC/N=C1/SC[C@@H]2[C@H](O)[C@H](O)CN12")
0.33
>>> val("CCCCCCCC/N=C1/SC[C@@H]2[C@H](O)[C@H](O)CN12")
0.57

"CCCCCCCCNC(=S)N1C[C@H](O)[C@@H](O)[C@@H]1CO" yielded fold change (FC) of 0.83
